Biological target: UniProtKB Q9UDY8
Sequence (Q9UDY8 whole entry): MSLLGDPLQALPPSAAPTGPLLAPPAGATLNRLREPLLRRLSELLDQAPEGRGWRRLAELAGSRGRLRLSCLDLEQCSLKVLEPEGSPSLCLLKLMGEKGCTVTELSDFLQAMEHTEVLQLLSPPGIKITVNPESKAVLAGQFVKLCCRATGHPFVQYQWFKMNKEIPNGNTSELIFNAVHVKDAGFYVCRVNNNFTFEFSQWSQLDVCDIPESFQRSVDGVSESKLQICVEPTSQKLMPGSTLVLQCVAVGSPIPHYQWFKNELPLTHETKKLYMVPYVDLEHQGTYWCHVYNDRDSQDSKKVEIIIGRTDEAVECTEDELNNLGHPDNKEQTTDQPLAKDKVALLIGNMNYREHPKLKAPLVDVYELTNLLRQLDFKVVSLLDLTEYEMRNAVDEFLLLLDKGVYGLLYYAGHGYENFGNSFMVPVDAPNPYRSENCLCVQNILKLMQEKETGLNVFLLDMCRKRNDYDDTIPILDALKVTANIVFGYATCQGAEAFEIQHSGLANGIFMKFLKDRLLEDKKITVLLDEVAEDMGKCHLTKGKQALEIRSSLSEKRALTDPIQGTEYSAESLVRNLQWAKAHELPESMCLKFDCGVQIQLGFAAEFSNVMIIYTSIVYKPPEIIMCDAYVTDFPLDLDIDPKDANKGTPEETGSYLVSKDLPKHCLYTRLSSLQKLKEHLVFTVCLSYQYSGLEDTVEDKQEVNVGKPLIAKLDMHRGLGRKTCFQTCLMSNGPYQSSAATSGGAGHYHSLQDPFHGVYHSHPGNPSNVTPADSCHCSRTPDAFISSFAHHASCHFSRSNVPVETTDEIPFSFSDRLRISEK
Experiment: MALT1 enzymatic activity inhibition (fluorescence, Ac-LRSR-AMC substrate)
Assay type: biochemical
Settings: recombinant MALT1 1.5 ng/μl, Ac-LRSR-AMC 1 μM
EC50 overview

Some solved cases for reference:
compound	value.measured
Cc1cc(NC(=O)Nc2cnc3ccnn3c2C(C)C)cnc1-c1noc(CCCCCC(=O)N2CCN(c3ccc4c(c3)CN(C3CCC(=O)N(C)C3=O)C4=O)CC2)n1 (centres unmarked) [Compound 146]	≤ 0.2 µM
O=C1CCC(N2Cc3cc(N4CCN(C(=O)CCCCc5nc(-c6ncc(NC(=O)Nc7cnc8ccnn8c7C7CCCC7)cc6C(F)(F)F)no5)CC4)ccc3C2=O)C(=O)N1 (centres unmarked) [Compound 96]	≤ 0.2 µM
Cc1cc(NC(=O)Nc2cnc3ccnn3c2C2CCCC2)cnc1-c1noc(CCCCCC(=O)Nc2ccc3c(c2)CN(C2CCC(=O)NC2=O)C3=O)n1 (centres unmarked) [Compound 61]	≤ 0.2 µM

Prompt line: What value of EC50 has been reported for the following compound? CC(C)c1c(NC(=O)Nc2cn(CCCCC(=O)N3CCN(c4ccc5c(c4)CN(C4CCC(=O)NC4=O)C5=O)CC3)nc2C(F)(F)F)cnc2ccnn12 (centres unmarked) [Compound 157]
Response line: > 5 µM

Prompt line: I would be grateful if you could share the reported EC50 for CC(C)c1c(NC(=O)Nc2cnc(-c3noc(CCCCCC(=O)N4CCN(c5ccc6c(c5)CN(C5CCC(=O)NC5=O)C6=O)CC4)n3)c(C(F)(F)F)c2)cnc2ccnn12 (centres unmarked) [Compound 162] .
Response line: ≤ 0.2 µM
